In this section we review reported IC50 values for a set of compounds.
target: CDK2/cyclin A (Homo sapiens); construct: His; assay: Inhibitory activity against CDK2 (CDK2/cyclin A kinase assay, GST-Rb substrate, 32P-ATP); details: 100 μM ATP, 30° C., 30 minutes
Entry rule: numbers only, all in µM.

Data point: CC(=O)Nc1cc(C)cc2c(=O)c(O)c(-c3ccc(O)c(N)c3)oc12 ; IC50 = 3

Data point: Nc1cc(N2CCCS2(=O)=O)c2oc(-c3ccc(O)cc3)c(O)c(=O)c2c1 ; IC50 = 0.088

Data point: CC(=O)Nc1cc(C)cc2c(=O)c(O)c(-c3ccc(O)c(NC(C)C)c3)oc12 ; IC50 = 18

Data point: Cc1cc([N+](=O)[O-])c2oc(-c3ccc(O)c([N+](=O)[O-])c3)c(O)c(=O)c2c1 ; IC50 = 4.5

Data point: Cc1ccc2oc(-c3ccc(O)c(O)c3O)c(O)c(=O)c2c1 ; IC50 = 1000

---

target: CDK4/cyclin D1 (Homo sapiens); construct: GST; test: Inhibitory activity against CDK4 (CDK4/cyclin D1 kinase assay, GST-Rb substrate, 32P-ATP); settings: 100 μM ATP, 30° C., 30 minutes
Sequence (P11802 whole entry): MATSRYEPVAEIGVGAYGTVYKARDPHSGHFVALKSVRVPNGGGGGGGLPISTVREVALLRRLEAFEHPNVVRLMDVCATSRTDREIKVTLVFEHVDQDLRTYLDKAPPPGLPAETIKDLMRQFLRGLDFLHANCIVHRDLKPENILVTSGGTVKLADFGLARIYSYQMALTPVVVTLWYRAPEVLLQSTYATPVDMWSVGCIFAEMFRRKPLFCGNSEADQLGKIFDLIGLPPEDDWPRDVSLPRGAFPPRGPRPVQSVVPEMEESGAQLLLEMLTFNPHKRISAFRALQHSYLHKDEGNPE
Sequence (P24385 whole entry partner): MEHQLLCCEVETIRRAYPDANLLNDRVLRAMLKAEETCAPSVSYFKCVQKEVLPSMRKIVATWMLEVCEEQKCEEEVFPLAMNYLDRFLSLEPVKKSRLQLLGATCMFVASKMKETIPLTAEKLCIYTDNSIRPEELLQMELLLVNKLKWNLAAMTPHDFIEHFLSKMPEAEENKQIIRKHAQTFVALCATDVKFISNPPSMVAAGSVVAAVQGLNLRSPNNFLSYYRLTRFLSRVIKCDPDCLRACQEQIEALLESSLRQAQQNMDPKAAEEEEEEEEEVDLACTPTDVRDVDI
In this section we review reported pIC50 values for a set of compounds.
API: returns pIC50 as number; meaning -log10 of concentration in mol/L.

Here is how some compounds turned out for pIC50.
Mol	Endpoint	Value
Cc1cc(N2CCCS2(=O)=O)c2oc(-c3ccc(O)c(C)c3)c(O)c(=O)c2c1	pIC50	5.70
Cc1cc(N2CCCS2(=O)=O)c2oc(-c3ccc(O)cc3O)c(O)c(=O)c2c1	pIC50	3.30
Cc1cc(-c2ccncc2)c2oc(-c3ccc(O)c(Cl)c3)c(O)c(=O)c2c1	pIC50	6.55
Cc1cc(N2CCCS2(=O)=O)c2oc(-c3ccc(O)c(C(F)(F)F)c3)c(O)c(=O)c2c1	pIC50	5.68
Cc1cc(N2CCCS2(=O)=O)c2oc(-c3ccc(O)c(C#N)c3)c(O)c(=O)c2c1	pIC50	6.10
O=c1c(O)c(-c2ccc(O)cc2)oc2c(N3CCCS3(=O)=O)cc(NC3CCCCC3)cc12	pIC50	5.80
Cc1ccc2oc(-c3ccc(O)c(O)c3O)c(O)c(=O)c2c1	pIC50	4.30
CC(=O)Nc1cc(C)cc2c(=O)c(O)c(-c3ccc(O)c(NC(C)C)c3)oc12	pIC50	4.33

Shift focus to the following entry.
Data point: Cc1cc(N2CCCS2(=O)=O)c2oc(-c3ccc(O)c(F)c3)c(O)c(=O)c2c1 ; pIC50 = 5.96

---

Target: CDK2/cyclin A (Homo sapiens, UniProt P24941)
Construct: His
Assay: Inhibitory activity against CDK2 (CDK2/cyclin A kinase assay, GST-Rb substrate, 32P-ATP)
Settings: 100 μM ATP, 30° C., 30 minutes
Description: The inhibitory activity against CDK2 was measured by referring to Kitagawa, M. et al., Oncogene 9; 2549, 1994 and that against CDK4 was measured by referring to Carlson, B. A. et al., Cancer Research 56; 2473, 1996. […] The activities of CDK2/cyclin A and CDK4/cyclin D1 were determined as follows. […]
Endpoint: pIC50
API: returns pIC50 as number; meaning -log10 of concentration in mol/L.

Here is how some molecules turned out for pIC50.
Mol	pIC50
Cc1cc(N)c2oc(-c3ccc(O)c(F)c3)c(O)c(=O)c2c1	4.85
Cc1cc(C2CCN(C)CC2)c2oc(-c3ccc(O)c(Cl)c3)c(O)c(=O)c2c1	6.30
Cc1cc(N2CCCS2(=O)=O)c2oc(-c3ccc(F)c(Cl)c3)c(O)c(=O)c2c1	4.89

Data point: Cc1cc(N2CCCS2(=O)=O)c2oc(-c3ccc(O)c(Br)c3)c(O)c(=O)c2c1 ; pIC50 = 7.12

This collection of values is drawn from patent US6683095B2.
